# Tested on: Heliothis virescens
# Protocol summary: whole plant or invertebrate
# Type: in vivo
# Conditions used: in Gossypium hirsutum, 72 h, read-out: grading of mortality, HV
Measured mortality at 250 ppm accompanies every entry in the list below.
Measurement name: mortality at 250 ppm

1) CCOc1ccc(C(O)(COCc2cccc(Oc3ccccc3)c2)C(F)(F)F)cc1 (centres unmarked) [Compound 112] ... < 50%
2) OC(COCc1cccc(Oc2ccc(Cl)cc2)c1)(c1ccc(OC(F)(F)F)cc1)C(F)(F)F (centres unmarked) [Compound 135] ... 80 to 100%
3) CCOc1ccc(C(COCc2ccc(F)c(Oc3ccccc3)c2)(OC(C)=O)C(F)(F)F)cc1 (centres unmarked) [Compound 149] ... 50 to 79%
4) CCOc1ccc(C(COCc2cccc(Oc3ccc(Br)cc3)c2)C(F)(F)F)cc1 (centres unmarked) [Compound 9] ... 80 to 100%
5) CCOc1ccc(C(Cl)(COCc2cccc(Oc3ccc(Cl)cc3)c2)C(F)(F)F)cc1 (centres unmarked) [Compound 42] ... 80 to 100%
6) CCOc1ccc(C(Cl)(COCc2coc(Cc3ccccc3)c2)C(F)(F)F)cc1 (centres unmarked) [Compound 45] ... < 50%
7) CCOc1ccc(C(O)(COCc2ccc(F)c(Oc3ccccc3)c2)C(F)(F)F)cc1 (centres unmarked) [Compound 113] ... < 50%
8) CCOc1ccc(C(Cl)(COCc2ccc(F)c(Oc3ccccc3)c2)C(F)(F)F)cc1 (centres unmarked) [Compound 40] ... 80 to 100%
9) CCOc1ccc(C(COCc2cccc(Oc3ccc(F)cc3F)c2)C(F)(F)F)cc1 (centres unmarked) [Compound 10] ... 80 to 100%
10) CCOc1ccc(C(COCc2cccc(Oc3ccc(Cl)cc3)c2)C(F)(F)F)cc1 (centres unmarked) [Compound 3] ... < 50%
11) CCOc1ccc(C(F)(COCc2c(F)c(F)c(C)c(F)c2F)C(F)(F)F)cc1 (centres unmarked) [Compound 78] ... 80 to 100%
12) CCOc1ccc(C(F)(COCc2ccc(F)c(Oc3ccccc3)c2)C(F)(F)F)cc1 (centres unmarked) [Compound 77] ... 80 to 100%
13) Fc1ccc(COCC(c2ccc3c(c2)CCC3)C(F)(F)F)cc1Oc1ccccc1 (centres unmarked) [Compound 19] ... 80 to 100%
14) Fc1ccc(C(COCc2ccc(F)c(Oc3ccccc3)c2)C(F)(F)F)cc1 (centres unmarked) [Compound 18] ... 80 to 100%
15) CCOc1ccc(C(F)(COCc2cccc(Oc3ccc(Cl)cc3)c2)C(F)(F)F)cc1 (centres unmarked) [Compound 79] ... 80 to 100%
16) CCOc1ccc(C(COCc2ccc(F)c(Oc3ccccc3)c2)(OC)C(F)(F)F)cc1 (centres unmarked) [Compound 150] ... 80 to 100%
17) CCOc1ccc(C(Cl)(COCc2c(F)c(F)c(C)c(F)c2F)C(F)(F)F)cc1 (centres unmarked) [Compound 39] ... < 50%

====

Measured mortality at 500 ppm accompanies every entry in the list below.
# Tested on: Myzus persicae
# Protocol summary: Insecticidal test, Myzus persicae (aphids), contact
# Type: in vivo
# Conditions used: 72 h, 500 ppm, Chinese Cabbage leaf, 3 days, read-out: grading of mortality, MP
Measurement name: mortality at 500 ppm

1. CCOc1ccc(C(O)(COCc2ccc(F)c(Oc3ccc(Cl)cc3)c2)C(F)(F)F)cc1 (stereo not drawn) ... < 50%
2. CCOc1ccc(C(O)(COCc2cccc(Oc3ccccc3)n2)C(F)(F)F)cc1 (stereo not drawn) ... < 50%
3. COCc1ccc(C(COCc2cccc(Oc3ccc(Cl)cc3)c2)C(F)(F)F)cc1 (stereo not drawn) ... 50 to 79%
4. OC(COCc1ccc(F)c(Oc2ccccc2)c1)(c1ccc(Br)cc1)C(F)(F)F (stereo not drawn) ... < 50%
5. OC(COCc1ccc(F)c(Oc2ccccc2)c1)(c1ccc(Cl)cc1)C(F)(F)F (stereo not drawn) ... < 50%
6. CCOc1ccc(C(COCc2cccc(-c3ccccc3)c2C)C(F)(F)F)cc1 (stereo not drawn) ... 80 to 100%
7. CCOc1ccc(C(COCc2ccc(F)c(Cc3ccccc3)c2)C(F)(F)F)cc1 (stereo not drawn) ... 80 to 100%
8. OC(COCc1cccc(Oc2ccc(Cl)cc2)c1)(c1ccc2c(c1)OCO2)C(F)(F)F (stereo not drawn) ... 50 to 79%
9. Fc1ccc(COCC(Cl)(c2ccc(Cl)cc2)C(F)(F)F)cc1Oc1ccccc1 (stereo not drawn) ... 80 to 100%

====

# Tested on: Musca domestica
# Protocol summary: Knockdown test, Musca domestica (houseflies - adults)
# Type: in vivo
# Conditions used: 250 ppm, cotton wool/sugar, 4 hours, read-out: grading of knockdown, MD/KD
Measured pest or weed control at 250 ppm accompanies every entry in the list below.
Measurement name: pest or weed control at 250 ppm

1. CCOc1ccc(C(F)(COCc2cccc(Oc3ccc(Cl)cc3)c2)C(F)(F)F)cc1 (stereo not drawn) [Compound 79] ... 80 to 100%
2. CCOc1ccc(C(COCc2ccc(F)c(Oc3ccccc3)c2)(OC(C)=O)C(F)(F)F)cc1 (stereo not drawn) [Compound 149] ... < 50%
3. OC(COCc1cccc(Oc2ccc(Cl)cc2)c1)(c1ccc(OC(F)(F)F)cc1)C(F)(F)F (stereo not drawn) [Compound 135] ... 80 to 100%

====

# Test system: Musca domestica
# Protocol summary: Insecticidal test, Musca domestica (houseflies - adults), contact
# Assay type: in vivo
# Conditions used: 24 h, 250 ppm, cotton wool/sugar, 1 day, read-out: grading of mortality, MD
Measurement name: mortality at 250 ppm

1) CCOc1ccc(C(COCc2cccc(Oc3ccc(Cl)cc3)c2)C(F)(F)F)cc1 (stereo not drawn) [Compound 3] ... 80 to 100%
2) OC(COCc1cccc(Oc2ccc(Cl)cc2)c1)(c1ccc(OC(F)(F)F)cc1)C(F)(F)F (stereo not drawn) [Compound 135] ... < 50%
3) CCOc1ccc(C(COCc2cccc(Oc3ccc(F)cc3F)c2)C(F)(F)F)cc1 (stereo not drawn) [Compound 10] ... 80 to 100%
